System name: Nonstructural protein 5A (Hepatitis C virus)
Sequence (Q5L478 whole entry): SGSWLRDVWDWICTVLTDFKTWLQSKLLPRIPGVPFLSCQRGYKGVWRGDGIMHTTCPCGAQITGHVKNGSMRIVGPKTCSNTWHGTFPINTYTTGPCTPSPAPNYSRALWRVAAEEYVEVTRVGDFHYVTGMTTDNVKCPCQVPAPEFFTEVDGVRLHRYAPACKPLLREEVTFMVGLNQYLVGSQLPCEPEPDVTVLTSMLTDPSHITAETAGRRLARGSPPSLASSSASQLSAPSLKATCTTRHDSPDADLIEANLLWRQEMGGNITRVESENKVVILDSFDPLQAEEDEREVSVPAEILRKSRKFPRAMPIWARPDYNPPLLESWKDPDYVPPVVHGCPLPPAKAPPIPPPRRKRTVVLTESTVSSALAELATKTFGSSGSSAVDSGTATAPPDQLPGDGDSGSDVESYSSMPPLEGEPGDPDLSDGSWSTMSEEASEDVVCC
Test protocol: Inhibition of Hepatitis C virus 1a H77 NS5A
Parameters: species or system Hepatitis C virus subtype 1a
Property: pEC50
Please note pEC50 is a logarithmic value: minus log10 of concentration in mol/L. Answer with that number alone.

Bench note: what pEC50 did COC(=O)N[C@H](C(=O)N1CCC[C@H]1c1ncc(-c2ccc(-c3ccc(-c4cnc([C@@H]5CCCN5C(=O)[C@@H](NC(=O)OC)C(C)C)[nH]4)cc3)cc2)[nH]1)C(C)C [DACLATASVIR] show?
10.30

----------
Measured Papp, listed per entry for reference.
Test protocol: Apparent permeability of compound in human Caco-2 cells
Type: ADME, cell-based
Give the quantity in ×10⁻⁶ cm/s, number only.

Answered cases to consult:
Form field: reported Papp of `CC(C)C#CCOC(=O)N[C@@H]1CCN(C(=O)N[C@@H](C(=O)N2CCC[C@H]2c2nc(-c3ccc([C@H]4CC[C@H](NC(=O)c5cnccn5)CC4)cc3)c[nH]2)c2ccccc2)C1`
1.6

Please answer likewise for `CC(C)(C)C#CCOC(=O)N[C@@H]1CCN(C(=O)N[C@@H](C(=O)N2CCC[C@H]2c2nc(-c3ccc([C@H]4CC[C@H](NC(=O)c5cnccn5)CC4)cc3)c[nH]2)c2ccccc2)C1`
1.1

Would you mind doing `CCCC#CCOC(=O)N[C@@H]1CCN(C(=O)N[C@@H](C(=O)N2CCC[C@H]2c2nc(-c3ccc([C@H]4CC[C@H](NC(=O)c5cnccn5)CC4)cc3)c[nH]2)c2ccccc2)C1` as well?
1.7

New cases:
So what does the record say about Papp for `CC(C)C#CCOC(=O)N[C@@H]1CCN(C(=O)N[C@@H](C(=O)N2CCC[C@H]2c2nc(-c3ccc([C@H]4CC[C@H](NC(=O)c5cnc(CO)cn5)CC4)cc3)c[nH]2)c2ccccc2)C1` ?
1.4

Likewise for `CCCCCOC(=O)N[C@@H]1CCN(C(=O)N[C@@H](C(=O)N2CCC[C@H]2c2nc(-c3ccc([C@H]4CC[C@H](NC(=O)c5cnccn5)CC4)cc3)c[nH]2)c2ccccc2)C1` ?
3

// same read-out, input: `CC#CCOC(=O)N[C@@H]1CCN(C(=O)N[C@@H](C(=O)N2CCC[C@H]2c2nc(-c3ccc([C@H]4CC[C@H](NC(=O)c5cnccn5)CC4)cc3)c[nH]2)c2ccccc2)C1`
2.1

Another compound to look at: COC1CCC(C(=O)N[C@H]2CC[C@H](c3ccc(-c4c[nH]c([C@@H]5CCCN5C(=O)[C@H](NC(=O)N5CC[C@@H](NC(=O)OCC6CCCCC6)C5)c5ccccc5)n4)cc3)CC2)CC1 (stereo partly drawn)
0.23

What about `CC#CCCOC(=O)N[C@@H]1CCN(C(=O)N[C@@H](C(=O)N2CCC[C@H]2c2nc(-c3ccc([C@H]4CC[C@H](NC(=O)c5cnccn5)CC4)cc3)c[nH]2)c2ccccc2)C1` ?
2.1

Same read-out for `CC(C)(C)C#CCOC(=O)N[C@@H]1CCN(C(=O)N[C@@H](C(=O)N2CCC[C@H]2c2nc(-c3ccc([C@H]4CC[C@H](NC(=O)c5cnc(CO)cn5)CC4)cc3)c[nH]2)c2ccccc2)C1` ?
1

Would you mind doing `O=C(N[C@@H]1CCN(C(=O)N[C@@H](C(=O)N2CCC[C@H]2c2nc(-c3ccc([C@H]4CC[C@H](NC(=O)c5cnccn5)CC4)cc3)c[nH]2)c2ccccc2)C1)OCC1CCCCC1` as well?
0.85

Entry to check: `CCC#CCOC(=O)N[C@@H]1CCN(C(=O)N[C@@H](C(=O)N2CCC[C@H]2c2nc(-c3ccc([C@H]4CC[C@H](NC(=O)c5cnccn5)CC4)cc3)c[nH]2)c2ccccc2)C1`
3.1
